testedTarget: acyl-CoA:cholesterol acyltransferase (ACAT)
assayExplanation: in vitro ACAT inhibition (LAI): radiolabeled cholesterol oleate formed from radiolabeled oleic acid in rat liver microsomes
Format: biochemical
appliedConditions: read-out: LAI (IC50, concentration of test compound required to inhibit the activity of the enzyme by 50%); rat liver microsomes
pIC50: −log10 of the molar value.
property: pIC50

1) CC(C)c1cc(C(C)C)c(CP(N)(=O)OCc2ccccc2)c(C(C)C)c1 (stereo not shown) ... 5.44
